# tested-on: Ephrin type-A receptor 2 (Homo sapiens, UniProt P29317)
# Sequence (P29317 whole entry, the tested form may be a part): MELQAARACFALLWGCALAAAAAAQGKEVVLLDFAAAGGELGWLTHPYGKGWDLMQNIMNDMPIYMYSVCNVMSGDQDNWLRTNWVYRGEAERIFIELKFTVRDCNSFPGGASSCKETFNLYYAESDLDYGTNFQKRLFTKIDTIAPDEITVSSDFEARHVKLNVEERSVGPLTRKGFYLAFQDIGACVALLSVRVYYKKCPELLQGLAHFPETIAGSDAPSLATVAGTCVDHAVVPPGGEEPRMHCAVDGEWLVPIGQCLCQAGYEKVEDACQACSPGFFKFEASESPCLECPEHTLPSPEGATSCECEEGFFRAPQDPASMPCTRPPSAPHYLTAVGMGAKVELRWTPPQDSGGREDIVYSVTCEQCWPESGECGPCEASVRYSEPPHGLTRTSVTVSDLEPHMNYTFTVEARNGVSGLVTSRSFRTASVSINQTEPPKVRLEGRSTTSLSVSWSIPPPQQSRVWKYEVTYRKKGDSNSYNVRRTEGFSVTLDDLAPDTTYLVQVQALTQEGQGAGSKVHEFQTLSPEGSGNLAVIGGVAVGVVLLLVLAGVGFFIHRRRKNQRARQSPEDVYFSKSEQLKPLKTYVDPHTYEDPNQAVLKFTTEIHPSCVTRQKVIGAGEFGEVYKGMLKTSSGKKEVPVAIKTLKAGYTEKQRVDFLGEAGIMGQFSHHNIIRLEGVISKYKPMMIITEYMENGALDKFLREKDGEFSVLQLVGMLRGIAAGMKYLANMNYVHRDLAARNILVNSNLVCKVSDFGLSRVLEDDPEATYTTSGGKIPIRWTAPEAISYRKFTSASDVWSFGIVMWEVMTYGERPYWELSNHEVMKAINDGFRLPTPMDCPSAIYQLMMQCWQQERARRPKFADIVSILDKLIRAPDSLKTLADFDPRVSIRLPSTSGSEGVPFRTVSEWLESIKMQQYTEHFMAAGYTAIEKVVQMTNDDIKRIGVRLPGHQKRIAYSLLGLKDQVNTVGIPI
# method-summary: Inhibition of recombinant human N-terminal His6-tagged EphA2 (N598 to R890 residues) expressed in baculovirus using poly-EY as substrate after 180 mins by luciferase coupled chemiluminescence assay
pIC50: −log10 of the molar value.
experimental-readout: pIC50

| compound | experimental-readout | result |
| --- | --- | --- |
| COc1cc2c(Nc3cccc(Br)c3Cl)ncnc2cc1OCC1CN(C)CCO1 (stereo not given) | pIC50 | 6.00 to 7.30 |
| CN/C(=N\C#N)N1CCOC(COc2cc3ncnc(Nc4ccc(Cl)c(C)c4)c3cc2OC)C1 (stereo not given) | pIC50 | 6.00 to 7.30 |
| COc1cc2c(Nc3ccc(F)c(Cl)c3F)ncnc2cc1OCC1CN(C)C(C)(C)CO1 (stereo not given) | pIC50 | > 7.30 |

Prompt: Quick one: pIC50 of COc1cc2c(Nc3ccc(Cl)c(Cl)c3)ncnc2cc1OCC1CN2CSC[C@H]2CO1 (stereo not given in full) ?
Completion: 6.00 to 7.30

Prompt: Field request: pIC50 | item: CCCCCCCCN1CCOC(COc2cc3ncnc(Nc4ccc(Cl)c(Cl)c4)c3cc2OC)C1 (stereo not given)
Completion: 4.70 to 6.00

----------
# tested-on: Ephrin type-B receptor 4 (Homo sapiens)
# method-summary: Inhibition of recombinant human N-terminal His6-tagged EphB4 kinase domain (E605 to E890 residues) expressed in baculovirus using poly-AEKY as substrate after 150 mins in presence of gamma33P-ATP by liquid scintillation spectrometry
experimental-readout: IC50

Recorded IC50, per entry:
| molecule | result |
| --- | --- |
| COc1cc2c(Nc3ccc(Br)c(Cl)c3)ncnc2cc1O[C@@H]1CO[C@H]2[C@@H]1OC[C@@H]2OS(C)(=O)=O | 1000 to 20000 nM |
| COc1cc2c(Nc3ccc(Br)c(Cl)c3F)ncnc2cc1OC[C@@H]1CN(C)CC(=O)N1 | 50 to 1000 nM |
| COc1cc2c(Nc3ccc(Cl)c(Cl)c3)ncnc2cc1OCC1CN(C(=O)CC(=O)O)CCO1 (centres undefined) | < 50 nM |
| COc1cc2c(Nc3ccc(Cl)c(Cl)c3)ncnc2cc1OCC1CN(CCC2CCCCC2)CCO1 (centres undefined) | 50 to 1000 nM |
| COc1cc2c(Nc3ccc(Br)c(C)c3)ncnc2cc1OCC1CN(C)CCO1 (centres undefined) | 50 to 1000 nM |

Below: the item to evaluate.
Prompt: Tell me the measured IC50 of COc1cc2c(Nc3ccc(Cl)c(Cl)c3)ncnc2cc1OCCC1CN(C(=O)OC(C)(C)C)C(C)(C)CO1 (centres undefined) , please.
Completion: 1000 to 20000 nM

----------
# tested-on: Ephrin type-B receptor 4 (Homo sapiens, UniProt P54760)
# Sequence (P54760 whole entry, the tested form may be a part): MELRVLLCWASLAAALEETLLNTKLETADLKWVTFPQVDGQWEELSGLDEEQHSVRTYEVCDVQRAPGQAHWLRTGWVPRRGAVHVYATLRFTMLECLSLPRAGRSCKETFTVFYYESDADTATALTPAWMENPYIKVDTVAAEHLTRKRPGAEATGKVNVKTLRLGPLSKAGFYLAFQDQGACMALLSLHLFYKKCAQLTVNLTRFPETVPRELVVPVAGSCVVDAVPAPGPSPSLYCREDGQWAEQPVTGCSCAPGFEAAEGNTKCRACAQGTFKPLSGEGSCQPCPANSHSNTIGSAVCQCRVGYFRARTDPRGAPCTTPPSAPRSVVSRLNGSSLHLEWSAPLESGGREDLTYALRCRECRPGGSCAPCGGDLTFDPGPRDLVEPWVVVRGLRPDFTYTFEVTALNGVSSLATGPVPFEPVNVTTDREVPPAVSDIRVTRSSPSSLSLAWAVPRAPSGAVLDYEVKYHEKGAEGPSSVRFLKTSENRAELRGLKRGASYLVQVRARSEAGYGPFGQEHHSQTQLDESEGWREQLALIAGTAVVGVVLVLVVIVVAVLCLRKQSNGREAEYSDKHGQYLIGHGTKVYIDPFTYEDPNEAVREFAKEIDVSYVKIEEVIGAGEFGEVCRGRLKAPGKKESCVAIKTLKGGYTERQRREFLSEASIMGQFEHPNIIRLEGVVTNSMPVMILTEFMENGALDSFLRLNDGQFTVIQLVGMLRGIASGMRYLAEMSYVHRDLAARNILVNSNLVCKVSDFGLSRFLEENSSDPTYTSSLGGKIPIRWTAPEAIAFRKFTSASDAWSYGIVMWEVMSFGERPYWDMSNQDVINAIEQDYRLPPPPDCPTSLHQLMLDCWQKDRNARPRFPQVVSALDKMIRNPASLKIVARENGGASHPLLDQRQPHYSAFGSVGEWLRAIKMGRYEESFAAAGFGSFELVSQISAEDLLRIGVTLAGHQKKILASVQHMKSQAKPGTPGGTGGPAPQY
# method-summary: Inhibition of recombinant human N-terminal His6-tagged EphB4 kinase domain (E605 to E890 residues) expressed in baculovirus using poly-AEKY as substrate after 150 mins in presence of gamma33P-ATP by liquid scintillation spectrometry
pIC50: −log10 of the molar value.
experimental-readout: pIC50

Recorded pIC50, per entry:
| compound | result |
| --- | --- |
| COc1cc2c(Nc3ccc(Cl)cc3Cl)ncnc2cc1OCC1CN(C)CCO1 (centres undefined) | 6.00 to 7.30 |
| COc1cc2c(Nc3ccc(Br)c(Cl)c3Cl)ncnc2cc1OC[C@@H]1CN2CCOC[C@H]2CO1 | > 7.30 |
| COc1cc2c(Nc3ccc(N4CCN(C)CC4)c(F)c3)ncnc2cc1O[C@H]1CO[C@H]2[C@@H]1OC[C@@H]2F | 4.70 to 6.00 |

Prompt: Tell me the measured pIC50 of CCCCN1CCOC(COc2cc3ncnc(Nc4ccc(Cl)c(Cl)c4)c3cc2OC)C1 (centres undefined) , please.
Completion: > 7.30

Prompt: Form field: reported pIC50 of COc1cc2c(Nc3cc(Cl)c(Cl)cc3F)ncnc2cc1OCC1CN(C)C(C)(C)CO1 (centres undefined)
Completion: > 7.30

Prompt: Tell me the measured pIC50 of COc1cc2c(Nc3ccc(Br)c(Cl)c3)ncnc2cc1O[C@H]1CO[C@H]2[C@@H]1OC[C@@H]2N1CCCCC1 , please.
Completion: 6.00 to 7.30

Prompt: Given the compound COc1cc2c(Nc3cc(Cl)c(Br)cc3F)ncnc2cc1OC[C@@H]1CN2CCOC[C@H]2CO1 , what is its reported pIC50?
Completion: > 7.30

Prompt: Could you share which pIC50 value was measured for COc1cc2c(Nc3ccc(Cl)c(Cl)c3)ncnc2cc1OCC1CN2CCOCC2CO1 (centres undefined) ?
Completion: > 7.30

Prompt: Dear colleague, I am looking for the recorded pIC50 of the following compound: COc1cc2c(Nc3ccc(Br)c(Cl)c3F)ncnc2cc1OC[C@@H]1CN(C)CC(=O)N1C
Completion: 6.00 to 7.30

----------
# tested-on: Receptor tyrosine-protein kinase erbB-2 (Homo sapiens)
# Sequence (P04626 whole entry, the tested form may be a part): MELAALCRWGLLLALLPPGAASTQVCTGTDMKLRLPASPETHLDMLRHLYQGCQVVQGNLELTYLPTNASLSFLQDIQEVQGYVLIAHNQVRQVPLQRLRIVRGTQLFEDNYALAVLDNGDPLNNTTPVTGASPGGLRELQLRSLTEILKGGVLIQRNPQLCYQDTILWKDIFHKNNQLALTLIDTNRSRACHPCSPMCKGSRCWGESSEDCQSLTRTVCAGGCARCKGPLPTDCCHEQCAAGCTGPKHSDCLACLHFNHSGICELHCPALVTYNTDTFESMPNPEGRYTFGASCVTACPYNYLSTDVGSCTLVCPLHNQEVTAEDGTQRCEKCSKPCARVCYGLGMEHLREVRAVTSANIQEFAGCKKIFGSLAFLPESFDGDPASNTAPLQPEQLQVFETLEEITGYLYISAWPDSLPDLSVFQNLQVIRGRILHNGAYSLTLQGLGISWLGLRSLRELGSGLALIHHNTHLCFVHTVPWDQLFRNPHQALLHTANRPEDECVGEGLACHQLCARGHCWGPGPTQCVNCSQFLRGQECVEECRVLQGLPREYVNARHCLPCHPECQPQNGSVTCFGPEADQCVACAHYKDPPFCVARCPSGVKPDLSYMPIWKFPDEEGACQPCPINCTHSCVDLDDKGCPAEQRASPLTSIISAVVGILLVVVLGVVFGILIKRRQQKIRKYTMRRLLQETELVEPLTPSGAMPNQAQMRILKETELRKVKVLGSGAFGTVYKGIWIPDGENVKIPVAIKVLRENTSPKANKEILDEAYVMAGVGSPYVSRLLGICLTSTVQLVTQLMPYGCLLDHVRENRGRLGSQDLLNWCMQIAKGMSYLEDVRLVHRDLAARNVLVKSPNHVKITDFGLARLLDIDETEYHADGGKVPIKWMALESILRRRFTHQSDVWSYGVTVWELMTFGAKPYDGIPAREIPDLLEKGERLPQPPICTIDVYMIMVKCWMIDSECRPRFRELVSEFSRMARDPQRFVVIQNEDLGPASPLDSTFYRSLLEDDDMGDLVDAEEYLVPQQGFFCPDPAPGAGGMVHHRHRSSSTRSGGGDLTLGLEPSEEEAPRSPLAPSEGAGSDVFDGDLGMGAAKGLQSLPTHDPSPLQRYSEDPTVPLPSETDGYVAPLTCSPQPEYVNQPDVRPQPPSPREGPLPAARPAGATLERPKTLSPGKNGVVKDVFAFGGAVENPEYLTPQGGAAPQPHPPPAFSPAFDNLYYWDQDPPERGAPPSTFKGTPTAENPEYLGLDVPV
# method-summary: Inhibition of recombinant human N-terminal GST His6-tagged thrombin cleavage site-fused ErbB2 kinase domain (Q679 to V1255 residues) expressed in baculovirus infected insect Sf9 cells using biotinylated poly-EY as substrate after 60 mins by alphascreen assay
experimental-readout: IC50

| compound | experimental-readout | result |
| --- | --- | --- |
| COc1cc2c(Nc3ccc(Cl)c(Cl)c3)ncnc2cc1OCC1CN2CCOCC2CO1 (stereo not drawn) | IC50 | < 50 nM |

Prompt: Entry under review: COc1cc2c(Nc3ccc(Br)c(Cl)c3F)ncnc2cc1OCC1CN(C)CCO1 (stereo not drawn) . Reported IC50?
Completion: < 50 nM

Prompt: Need IC50, item COc1cc2c(Nc3ccc(Br)c(Cl)c3)ncnc2cc1O[C@H]1CO[C@H]2[C@@H]1OC[C@@H]2N1CCOCC1
Completion: 1000 to 20000 nM

Prompt: What measured IC50 goes with COc1cc2c(Nc3cc(Cl)c(Br)cc3F)ncnc2cc1OC[C@H]1CN2CCOC[C@H]2CO1 ?
Completion: 50 to 1000 nM

Prompt: Any idea what IC50 was measured for COc1cc2c(Nc3ccc(Br)c(Cl)c3)ncnc2cc1O[C@H]1CO[C@H]2[C@@H]1OC[C@@H]2NC(C)=O ?
Completion: 1000 to 20000 nM

Prompt: GET /values?readout=IC50&item= COc1cc2c(Nc3cc(Cl)c(Cl)cc3F)ncnc2cc1OC[C@@H]1CN2CCOC[C@H]2CO1
Completion: 50 to 1000 nM

Prompt: Reported IC50 for COc1cc2c(Nc3ccc(Br)c(Cl)c3)ncnc2cc1O[C@H]1CO[C@H]2[C@@H]1OC[C@@H]2N1CCCCC1 : what is it?
Completion: 1000 to 20000 nM

Prompt: Reported IC50 for CCC(=O)N1CCOC(COc2cc3ncnc(Nc4ccc(Cl)c(Cl)c4)c3cc2OC)C1 (stereo not drawn) : what is it?
Completion: < 50 nM

----------
# tested-on: Ephrin type-A receptor 2 (Homo sapiens, UniProt P29317)
# method-summary: Inhibition of recombinant human N-terminal His6-tagged EphA2 (N598 to R890 residues) expressed in baculovirus using poly-EY as substrate after 180 mins by luciferase coupled chemiluminescence assay
pIC50: −log10 of the molar value.
experimental-readout: pIC50

Below are worked cases with known answers.
| compound | tested-on | experimental-readout | result |
| --- | --- | --- | --- |
| COc1cc2c(Nc3ccc(Br)c(Cl)c3)ncnc2cc1O[C@@H]1CO[C@H]2[C@@H]1OC[C@@H]2O | Ephrin type-A receptor 2 (Homo sapiens, UniProt P29317) | pIC50 | 4.70 to 6.00 |
| COc1cc2c(Nc3ccc(Cl)c(Cl)c3)ncnc2cc1OCC1CN(c2ccncc2)CCO1 (stereo not drawn) | Ephrin type-A receptor 2 (Homo sapiens, UniProt P29317) | pIC50 | > 7.30 |
| COc1cc2c(Nc3ccc(Cl)c(Cl)c3F)ncnc2cc1OC[C@@H]1C[C@@H]2CN(C)C[C@@H]2C1 | Ephrin type-A receptor 2 (Homo sapiens, UniProt P29317) | pIC50 | > 7.30 |

Prompt: Which pIC50 is listed for CCCCCCN1CCOC(COc2cc3ncnc(Nc4ccc(Cl)c(Cl)c4)c3cc2OC)C1 (stereo not drawn) ?
Completion: 6.00 to 7.30

Prompt: Could you share which pIC50 value was measured for COc1cc2c(Nc3ccc(Cl)cc3Cl)ncnc2cc1OCC1CN(C)CCO1 (stereo not drawn) ?
Completion: 6.00 to 7.30

Prompt: Form field: reported pIC50 of C=CCN1CCOC(COc2cc3ncnc(Nc4ccc(Cl)c(Cl)c4)c3cc2OC)C1 (stereo not drawn)
Completion: 6.00 to 7.30

Prompt: # lookup: pIC50 of COc1cc2c(Nc3ccc(Br)c(Cl)c3)ncnc2cc1O[C@H]1CO[C@H]2[C@@H]1OC[C@@H]2OC(C)=O
Completion: 4.70 to 6.00
